system: Fer (mouse); assay: phosphorylation enrichment, bacterial display (enrichment ratio); higher = better substrate or ligand; peptides without Tyr show the background;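 further: 11-residue human phosphosite peptides and single-mutation variants displayed on the E. coli surface, counted by deep sequencing, each peptide's frequency after selection divided by its frequency in the unselected input library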;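 further: frequency after pTyr selection over input frequency; kinase dosed for 20-30% of maximal phosphorylation in three min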
Criterion: phosphorylation enrichment meeting or surpassing 0.5. Met: class 1. Not met: class 0.

Take a look at these entries with their results.
Sequence Chain: YTNELYMMMRD [FGFR1_Y730_C725Y]
Group Label: class 1

Sequence Chain: KTGNIYRTEYG [MRPL3_Y265_M261T]
Group Label: class 1

Sequence Chain: ESKKHYGFSLF [ANXA3_Y295_F291S_YF]
Group Label: class 1

Sequence Chain: ATHRGYDLDNP [MMUT_Y146_S148L]
Group Label: class 0

Sequence Chain: FKDYFYCWNTF [AICDA_Y146]
Group Label: class 1

Hi team, for RAHARYCADAC [ACOT4_Y52_R57C] , is the recorded phosphorylation enrichment at or above 0.5? class 1

Could you verify whether the entry RTTIHYNFMCN [TP53_Y234_C229R_YF] shows phosphorylation enrichment of no less than 0.5? class 1

Decide: phosphorylation enrichment of ECKETYHEGEC [PRKN_Y372_A371T] >= 0.5? class 1

hey, is phosphorylation enrichment for this one >= 0.5? GGFSRYDEGSG [RECQL5_Y484_D480G] class 0

Can STTSDYQWDFS [MTDH_Y364_V368F] be said to have phosphorylation enrichment at or above 0.5? class 1

Is reported phosphorylation enrichment greater than or equal to 0.5 here: PQEVMYAQLDH [KIR3DL2_Y398_T397M] class 1

###

molecular target: FGFR3 (UniProt P22607); test: phosphorylation enrichment, bacterial display (enrichment ratio); higher = better substrate or ligand; peptides without Tyr show the background
Sequence (P22607 whole entry, looked up): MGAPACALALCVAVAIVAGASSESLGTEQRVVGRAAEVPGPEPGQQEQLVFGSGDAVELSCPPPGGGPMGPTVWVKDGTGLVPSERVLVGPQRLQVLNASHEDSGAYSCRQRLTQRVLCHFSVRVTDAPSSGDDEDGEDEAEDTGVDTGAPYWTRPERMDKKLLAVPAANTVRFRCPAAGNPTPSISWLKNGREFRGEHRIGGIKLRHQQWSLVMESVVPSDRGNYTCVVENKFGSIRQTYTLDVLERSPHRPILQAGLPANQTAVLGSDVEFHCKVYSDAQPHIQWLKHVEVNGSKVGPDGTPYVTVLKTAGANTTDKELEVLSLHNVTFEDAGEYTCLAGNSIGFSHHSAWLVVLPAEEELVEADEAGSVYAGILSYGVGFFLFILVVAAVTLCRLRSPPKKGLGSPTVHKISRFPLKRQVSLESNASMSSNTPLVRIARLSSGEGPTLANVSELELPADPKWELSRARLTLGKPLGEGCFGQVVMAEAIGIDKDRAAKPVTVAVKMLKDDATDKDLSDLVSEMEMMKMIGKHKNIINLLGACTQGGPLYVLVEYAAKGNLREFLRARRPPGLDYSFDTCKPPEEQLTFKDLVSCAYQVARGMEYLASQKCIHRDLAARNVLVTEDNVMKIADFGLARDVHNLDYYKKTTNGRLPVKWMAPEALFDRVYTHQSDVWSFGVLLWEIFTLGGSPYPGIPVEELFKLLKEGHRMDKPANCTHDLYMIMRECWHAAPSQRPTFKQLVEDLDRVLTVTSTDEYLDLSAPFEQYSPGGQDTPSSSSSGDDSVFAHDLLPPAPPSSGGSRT
Observation Type: phosphorylation enrichment

Known phosphorylation enrichment results, listed for orientation:
Sequence Chain: YLTSSYINIST [IL23R_Y178]
Target System: FGFR3 (UniProt P22607)
phosphorylation enrichment: 1.29
--
Sequence Chain: NAMRRYIEEFQ [MNS1_Y244]
Target System: FGFR3 (UniProt P22607)
phosphorylation enrichment: 0.501
--
Sequence Chain: TSSAVYMNLAS [GATAD2B_Y317_I316V]
Target System: FGFR3 (UniProt P22607)
phosphorylation enrichment: 1.09
--
Sequence Chain: RIGRKYKRVRF [F8_Y442_K444R]
Target System: FGFR3 (UniProt P22607)
phosphorylation enrichment: 1.55
--
Sequence Chain: KELSSYKHLTL [SLIT2_Y776_N775S]
Target System: FGFR3 (UniProt P22607)
phosphorylation enrichment: 0.406

Note down phosphorylation enrichment recorded for VDHFGYTKDDK [APOB_Y740] 0.498

###

molecular target: EPHB1 (UniProt P54762); assay: phosphorylation enrichment, bacterial display (enrichment ratio); higher = better substrate or ligand; peptides without Tyr show the background
Sequence (P54762 whole entry, looked up): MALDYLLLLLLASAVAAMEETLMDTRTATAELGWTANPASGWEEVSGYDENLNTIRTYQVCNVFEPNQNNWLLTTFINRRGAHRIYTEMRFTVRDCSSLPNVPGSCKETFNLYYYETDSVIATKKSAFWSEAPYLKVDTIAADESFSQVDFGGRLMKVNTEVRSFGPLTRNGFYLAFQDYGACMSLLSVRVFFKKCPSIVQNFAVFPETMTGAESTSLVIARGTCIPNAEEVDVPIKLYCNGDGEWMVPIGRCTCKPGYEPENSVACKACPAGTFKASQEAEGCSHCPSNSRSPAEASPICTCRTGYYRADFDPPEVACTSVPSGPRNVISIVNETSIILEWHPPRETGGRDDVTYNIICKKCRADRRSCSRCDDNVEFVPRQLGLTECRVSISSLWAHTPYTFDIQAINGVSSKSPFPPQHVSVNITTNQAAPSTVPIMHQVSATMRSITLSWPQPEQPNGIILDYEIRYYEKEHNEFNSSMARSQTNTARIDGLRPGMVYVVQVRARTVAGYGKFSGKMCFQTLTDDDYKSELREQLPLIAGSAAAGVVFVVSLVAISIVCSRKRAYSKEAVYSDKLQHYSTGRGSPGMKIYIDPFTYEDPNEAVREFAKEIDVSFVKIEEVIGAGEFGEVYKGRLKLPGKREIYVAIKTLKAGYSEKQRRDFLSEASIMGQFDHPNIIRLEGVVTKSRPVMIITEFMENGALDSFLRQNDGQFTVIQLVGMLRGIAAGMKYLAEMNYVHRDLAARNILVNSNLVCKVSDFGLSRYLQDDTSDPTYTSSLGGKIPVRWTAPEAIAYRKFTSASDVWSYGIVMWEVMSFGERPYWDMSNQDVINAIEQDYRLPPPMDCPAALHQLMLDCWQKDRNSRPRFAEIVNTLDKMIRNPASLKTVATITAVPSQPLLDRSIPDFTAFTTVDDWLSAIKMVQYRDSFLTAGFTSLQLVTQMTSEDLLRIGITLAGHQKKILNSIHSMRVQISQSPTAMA
Measured phosphorylation enrichment accompanies every entry in the list below.
Write the value as a bare number.

Known phosphorylation enrichment results, listed for orientation:
Sequence Chain: RPSELYFSKIS [SMG1_Y2253_G2258S_YF]
Target System: EPHB1 (UniProt P54762)
phosphorylation enrichment: 2
--
Sequence Chain: TLKVGYTEKQR [EPHA3_Y659]
Target System: EPHB1 (UniProt P54762)
phosphorylation enrichment: 0.259
--
Sequence Chain: KELAKYYKLHH [AK7_Y390_N389K]
Target System: EPHB1 (UniProt P54762)
phosphorylation enrichment: 0.366

Now look at this one.
Report value: phosphorylation enrichment, system: EPHB1 (UniProt P54762), sequence: EKESCYILHSS [PATJ_Y783_E779K] 0.531

Hey, just so you know, these numbers are from the supplement of paper PMC10065799.
